Taken from the NIST ThermoML archive (doi:10.1016/j.jct.2007.03.004).

assay overview: refractive index (Na D-line) (dimensionless)
study conditions: 293.15 K; 101.33 kPa; Liquid; Standard Abbe refractometry
Kindly supply the reported refractive index values for the records listed here.
One number for each entry.

Hi! Can you tell me refractive index for each of these compounds?
1. CCOC(=O)CCCCC(=O)OCC [diethyl hexanedioate]
2. CCC(=O)O
3. CCOC(=O)CCC(=O)OCC [diethyl butanedioate]
4. CCOC(=O)CCCC(=O)OCC [diethyl glutarate]

Ans.
1.42725
1.3808
1.42014
1.42414

====

Kindly supply the reported mass density values for the records listed here.
study conditions: 293.15 K; 101.33 kPa; Liquid
Answers are plain numbers, in kg/m3.

CCOC(=O)CCC(=O)OCC [diethyl butanedioate] :: 1040.22
CCC(=O)O :: 988.04
CCOC(=O)CCCC(=O)OCC [diethyl glutarate] :: 1022.04

Next item in the queue.
Qu. Give the measured mass density for CCOC(=O)CCCCC(=O)OCC [diethyl hexanedioate]
Ans. 1007.63
